- System: HLA II molecules predominant in the Caucasian population
- assay_text: Binding activity with respect to the 12 HLA II molecules (summary of the panel)
- Set-up: species or system human
- test_settings: of 12 HLA II molecules; good affinity = IC50 less than 1000 nM
parameter_measured: Number of alleles bound
Number only, no unit.

Recorded Number of alleles bound, per entry:
{"molecule": "N=C(N)NCCC[C@H](NC(=O)CNC(=O)CNC(=O)[C@@H](N)CC(=O)O)C(=O)N[C@@H](CCCNC(=N)N)C(=O)N[C@@H](CCCCN)C(=O)N[C@@H](CCCCN)C(=O)NCC(=O)NCC(=O)N[C@@H](Cc1c[nH]c2ccccc12)C(=O)N[C@@H](Cc1ccccc1)C(=O)NCC(=O)N[C@@H](CCCCN)C(=O)N[C@@H](Cc1c[nH]cn1)C(=O)N[C@@H](CCCNC(=N)N)C(=O)NCC(=O)N[C@@H](CCC(N)=O)C(=O)NCC(=O)NCC(=O)N[C@@H](CO)C(=O)N[C@@H](CC(N)=O)C(=O)N1CCC[C@H]1C(=O)O [Peptide D22P]", "Number of alleles bound": 1}
{"molecule": "CSCC[C@H](NC(=O)[C@@H]1CCCN1C(=O)[C@@H]1CCCN1C(=O)[C@H](Cc1ccccc1)NC(=O)[C@H](Cc1c[nH]c2ccccc12)NC(=O)[C@@H]1CCCN1C(=O)[C@@H]1CCCN1C(=O)[C@@H](N)CC(C)C)C(=O)N[C@H](C(=O)N[C@@H](CCC(=O)O)C(=O)NCC(=O)N[C@@H](C)C(=O)N[C@@H](C)C(=O)N[C@@H](C)C(=O)N[C@@H](CCC(=O)O)C(=O)NCC(=O)N[C@@H](CC(=O)O)C(=O)N[C@@H](CC(=O)O)C(=O)NCC(=O)O)C(C)C [Peptide L19G]", "Number of alleles bound": 0}
{"molecule": "CSCC[C@H](NC(=O)[C@H](CCC(=O)O)NC(=O)[C@H](CC(C)C)NC(=O)[C@H](CO)NC(=O)CNC(=O)[C@@H](N)CCSC)C(=O)N[C@H](C(=O)N1CCC[C@H]1C(=O)N[C@@H](CCSC)C(=O)NCC(=O)N[C@@H](C)C(=O)NCC(=O)N1CCC[C@H]1C(=O)N1CCC[C@H]1C(=O)N[C@@H](CO)C(=O)N1CCC[C@H]1C(=O)NCC(=O)NCC(=O)N[C@@H](CC(=O)O)C(=O)N1CCC[C@H]1C(=O)O)C(C)C [Peptide M20P]", "Number of alleles bound": 1}

API: the following record is the query input.
For record CC(C)C[C@H](NC(=O)[C@H](CC(=O)O)NC(=O)[C@H](Cc1c[nH]cn1)NC(=O)[C@@H](N)CCC(=O)O)C(=O)N[C@@H](CCC(=O)O)C(=O)N[C@@H](CCCNC(=N)N)C(=O)NCC(=O)N1CCC[C@H]1C(=O)N1CCC[C@H]1C(=O)NCC(=O)N1CCC[C@H]1C(=O)N[C@@H](CCCNC(=N)N)C(=O)N[C@@H](CCCNC(=N)N)C(=O)N1CCC[C@H]1C(=O)N1CCC[C@H]1C(=O)O [Peptide E15P] the listed Number of alleles bound is 0

----------
- System: HLA II molecules predominant in the Caucasian population
- assay_text: Binding activity with respect to the 12 HLA II molecules (summary of the panel)
- Parameters: species or system human
- test_settings: of 12 HLA II molecules; good affinity = IC50 less than 1000 nM
parameter_measured: Number of alleles bound
Number only, no unit.

For record CC[C@H](C)[C@H](NC(=O)CNC(=O)[C@H](CC(C)C)NC(=O)[C@H](Cc1ccccc1)NC(=O)[C@H](CC(C)C)NC(=O)[C@H](C)NC(=O)[C@H](CCC(N)=O)NC(=O)CNC(=O)[C@H](Cc1c[nH]cn1)NC(=O)[C@H](CC(C)C)NC(=O)[C@H](CC(N)=O)NC(=O)[C@H](Cc1c[nH]c2ccccc12)NC(=O)[C@H](CC(C)C)NC(=O)[C@H](C)N)C(=O)N[C@H](C(=O)N[C@@H](CC(C)C)C(=O)O)C(C)C [Peptide A16L] the listed Number of alleles bound is 4

For record CSCC[C@H](NC(=O)[C@H](Cc1ccccc1)NC(=O)[C@@H](NC(=O)[C@@H]1CCCN1C(=O)CNC(=O)[C@H](Cc1ccc(O)cc1)NC(=O)[C@@H](NC(=O)[C@H](CCCNC(=N)N)NC(=O)[C@H](CC(N)=O)NC(=O)CNC(=O)[C@H](CO)NC(=O)CNC(=O)[C@H](Cc1c[nH]c2ccccc12)NC(=O)[C@H](CCC(=O)O)NC(=O)[C@@H](NC(=O)[C@@H](N)CC(C)C)[C@@H](C)O)[C@@H](C)O)C(C)C)C(=O)N[C@@H](CS)C(=O)N[C@@H](CC(C)C)C(=O)O [Peptide L18L] the listed Number of alleles bound is 0

Data provenance is patent US20090130134A1.
